# assayedTarget: human TPO receptor (hTPOR) (Homo sapiens, UniProt P40238)
# Sequence (P40238 26-635): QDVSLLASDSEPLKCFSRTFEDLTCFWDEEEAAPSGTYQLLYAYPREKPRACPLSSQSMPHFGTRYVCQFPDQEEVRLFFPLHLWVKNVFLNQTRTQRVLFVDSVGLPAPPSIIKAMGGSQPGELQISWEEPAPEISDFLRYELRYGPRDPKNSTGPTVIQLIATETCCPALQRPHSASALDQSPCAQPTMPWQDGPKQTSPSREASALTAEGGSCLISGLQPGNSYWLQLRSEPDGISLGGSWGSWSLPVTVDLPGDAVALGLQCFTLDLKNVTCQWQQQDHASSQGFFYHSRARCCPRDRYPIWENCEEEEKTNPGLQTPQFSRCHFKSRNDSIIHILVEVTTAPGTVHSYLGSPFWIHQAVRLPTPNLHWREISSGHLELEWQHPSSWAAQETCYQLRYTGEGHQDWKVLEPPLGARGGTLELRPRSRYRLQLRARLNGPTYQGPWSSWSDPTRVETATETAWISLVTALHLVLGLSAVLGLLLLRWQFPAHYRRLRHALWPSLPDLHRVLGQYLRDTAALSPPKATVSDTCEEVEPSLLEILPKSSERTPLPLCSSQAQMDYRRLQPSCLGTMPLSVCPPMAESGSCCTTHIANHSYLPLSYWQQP
# testName: Proliferation of TPO dependent BaF/hTPOR cells, WST-1, thrombopoietic activity ED50 (Test Example 3)
# measurementContext: 20 h incubation then WST-1 4 h, absorbance at 450 nm
pEC50: −log10 of the molar value.
Binary classification by pEC50, with 7 as an inclusive lower bound for True; all other cases are False.

Here's what some known entries look like.
Exercise: Hi team, for C/C(=C\c1ccc(C(=O)Nc2nc(-c3ccc(Cl)c(Cl)c3)cs2)cc1)C(=O)NCc1ccc(C(F)(F)F)cc1 , is the recorded pEC50 at or above 7?
Solution: False

Exercise: Hi team, for O=C(O)/C(Cl)=C/c1ccc(C(=O)Nc2nc(-c3cccc(C(F)(F)F)c3F)cs2)cc1 , is the recorded pEC50 at or above 7?
Solution: True

Exercise: Hi team, for O=C(O)/C(Cl)=C/c1ccc(C(=O)Nc2nc(-c3ccc(F)c(Br)c3F)cs2)cc1 , is the recorded pEC50 at or above 7?
Solution: False

Exercise: Hi team, for O=C(O)/C(F)=C/c1ccc(C(=O)Nc2nc(-c3ccc(F)cc3)cs2)cc1 , is the recorded pEC50 at or above 7?
Solution: False

Exercise: Hi team, for C/C(=C\c1ccc(C(=O)Nc2nc(-c3ccc(Cl)c(Cl)c3)cs2)cc1)C(=O)NC[Si](C)(C)C , is the recorded pEC50 at or above 7?
Solution: False

Continuing:
Exercise: Hi team, for COc1cccc(-c2csc(NC(=O)c3ccc(/C=C(\Cl)C(=O)O)cc3)n2)c1 , is the recorded pEC50 at or above 7?
Solution: False

Exercise: Hi team, for O=C(O)/C(Cl)=C/c1ccc(C(=O)Nc2nc(-c3ccc(-c4ccccc4)cc3)cs2)cc1 , is the recorded pEC50 at or above 7?
Solution: False

Exercise: Hi team, for COc1cc(C(=O)Nc2nc(-c3ccc(Cl)c(Cl)c3)cs2)ccc1C#CC(=O)O , is the recorded pEC50 at or above 7?
Solution: False

Exercise: Hi team, for O=C(O)/C(Cl)=C/c1ccc(C(=O)Nc2nc(-c3cccc(C(F)(F)F)c3)cs2)cc1 , is the recorded pEC50 at or above 7?
Solution: True

Exercise: Hi team, for C/C(=C\c1ccc(C(=O)Nc2nc(-c3ccc(Cl)c(Cl)c3)cs2)cc1)C(=O)NCc1ccco1 , is the recorded pEC50 at or above 7?
Solution: False

Exercise: Hi team, for C/C(=C\c1ccc(C(=O)Nc2nc(-c3ccc(Cl)c(Cl)c3)cs2)cc1)C(=O)NN(C)C , is the recorded pEC50 at or above 7?
Solution: False
